- run-description: Approximate solubility in solvents by aliquot addition
- Format: physicochemical
- condition-description: HFIPA/THF, organic solvent or mixture, thermodynamic from solid, Table 11: HFIPA/THF
Counter-ions that a name gives are not always drawn.
measurement-label: solubility

CC(=O)NC[C@H]1CN(c2ccc(-c3ccc(CNCc4cnn[nH]4)cc3)c(F)c2)C(=O)O1 [Hydrochloride]	≥ 74 mg/mL

====

Listing of recorded MIC by entry.
- Test system: S. aureus
- run-description: Minimum inhibitory concentrations (MICs) for S. aureus of exemplary compounds (Table 2)
- Type: cell-based
- condition-description: Staphylococcus aureus, minimum inhibitory concentrations for S. aureus; read-out: MICs
- From the text: Exemplary compounds in accordance with the invention are listed in Table 2 with their minimum inhibitory concentrations (MICs) (μg/mL) for S. aureus: Furthermore, the antibiotic compounds can be assayed for anti-proliferative or anti-infective properties on a cellular level. For example, where the target organism is a microorganism, the activity of compounds of interest can be assayed by growing the microorganisms of interest in media either containing or lacking the compound. […]
measurement-label: MIC

CC(=O)NC[C@H]1CN(c2ccc(-c3ccc(CN4CCN(C=O)CC4)cc3)c(F)c2)C(=O)O1 [Compound 1006]	0.5 µg/mL
CC(=O)NC[C@H]1CN(c2ccc(-c3ccc(C[S+]([O-])c4nncs4)cc3)c(F)c2)C(=O)O1 (stereo partly drawn) [Compound 2035]	1 µg/mL
CC(=O)NC[C@H]1CN(c2ccc(-c3ccc(Cn4cc(C)cn4)cc3)c(F)c2)C(=O)O1 [Compound 1052]	1 µg/mL
CC(=O)NC[C@H]1CN(c2ccc(-c3ccc(CNCC4CCC=CO4)cc3)c(F)c2)C(=O)O1 (stereo partly drawn) [Compound 4131]	1 µg/mL
CC(=O)NC[C@H]1CN(c2ccc(-c3ccc(CNCc4nnnn4C)cc3)c(F)c2)C(=O)O1 [Compound 4283]	0.25 µg/mL
CC(=O)NC[C@H]1CN(c2ccc(-c3ccc(CNCc4c[nH]c(C)n4)cc3)c(F)c2)C(=O)O1 [Compound 4165]	4 µg/mL
CC(=O)NC[C@H]1CN(c2ccc(-c3ccc(CNCc4ccc(Br)nc4)cc3)c(F)c2)C(=O)O1 [Compound 4181]	1 µg/mL
CC(=O)NC[C@H]1CN(c2ccc(-c3ccc(C[S+]([O-])c4nnnn4C)cc3)c(F)c2)C(=O)O1 (stereo partly drawn) [Compound 2020]	0.25 µg/mL
CC(=O)NC[C@H]1CN(c2ccc(-c3ccc(CNCc4ccc5ncccc5c4)cc3)c(F)c2)C(=O)O1 [Compound 4071]	2 µg/mL
CC(=O)NC[C@H]1CN(c2ccc(-c3ccc(Cn4cnc5c(=O)[nH]cnc54)cc3)c(F)c2)C(=O)O1 [Compound 1111]	2 µg/mL
COc1cc(CNCc2ccoc2)ccc1-c1ccc(N2C[C@H](CNC(C)=O)OC2=O)cc1F [Compound 4028]	8 µg/mL
CC(=O)NC[C@H]1CN(c2ccc(-c3ccc(CNCc4csc(-c5cccs5)n4)cc3)c(F)c2)C(=O)O1 [Compound 4113]	0.25 µg/mL
CC(=O)NC[C@H]1CN(c2ccc(-c3ccc(CNC(=O)c4ccc(F)cc4)cc3)c(F)c2)C(=O)O1 [Compound 4013]	8 µg/mL
CC(=O)NC[C@H]1CN(c2ccc(-c3ccc(CNCC(=O)N4CCOCC4)cc3)c(F)c2)C(=O)O1 [Compound 4316]	4 µg/mL
CC(=O)NC[C@H]1CN(c2ccc(-c3ccc(CNC(=O)[C@@H]4C=CCN4C(=O)OC(C)(C)C)cc3)c(F)c2)C(=O)O1 [Compound 4305]	16 µg/mL

====

- System: S. aureus
- run-description: Minimum inhibitory concentrations (MICs) for S. aureus of exemplary compounds (Table 2)
- Format: cell-based
- condition-description: Staphylococcus aureus, minimum inhibitory concentrations for S. aureus; read-out: MICs
measurement-label: MIC

O=C(NC[C@H]1CN(c2ccc(-c3ccc(Cn4cnnn4)cc3)c(F)c2)C(=O)O1)C(Cl)Cl	0.5 µg/mL
CC(=O)NC[C@H]1CN(c2ccc(-c3ccc(CNCc4cccn4C)cc3)c(F)c2)C(=O)O1	2 µg/mL
CC(=O)NC[C@H]1CN(c2ccc(-c3ccc(C(=O)NCCc4cnc[nH]4)c(F)c3)c(F)c2)C(=O)O1	1 µg/mL
CC(=O)NC[C@H]1CN(c2ccc(-c3ccc([S+]([O-])Cc4ccncc4)cc3)c(F)c2)C(=O)O1 (stereo partly drawn)	1 µg/mL
CC(=O)NC[C@H]1CN(c2ccc(-c3ccc(COCc4ccncc4)cc3)c(F)c2)C(=O)O1	1 µg/mL
CC(=O)NC[C@H]1CN(c2ccc(-c3ccc(CNCc4cc(-c5ccccc5)oc4C)cc3)c(F)c2)C(=O)O1	2 µg/mL
CC(=O)NC[C@H]1CN(c2ccc(-c3ccc(CN4CCC(CCO)CC4)cc3)c(F)c2)C(=O)O1	2 µg/mL
CC(=O)NC[C@H]1CN(c2ccc(-c3ccc(CNCc4cnn[nH]4)nc3)c(F)c2)C(=O)O1	4 µg/mL
CC(=O)NC[C@H]1CN(c2ccc(-c3ccc(CNCC4OCCO4)cc3)c(F)c2)C(=O)O1	0.5 µg/mL
CC(=O)NC[C@H]1CN(c2ccc(-c3ccc(CNCc4nccs4)c(F)c3)c(F)c2)C(=O)O1	1 µg/mL
CC(=O)NC[C@H]1CN(c2ccc(-c3ccc(CNC(=O)C4CCN4C(=O)OC(C)(C)C)cc3)c(F)c2)C(=O)O1 (stereo partly drawn)	8 µg/mL
CC(=O)NC[C@H]1CN(c2ccc(-c3ccc(CS(=O)(=O)c4cnn[nH]4)cc3)c(F)c2)C(=O)O1	8 µg/mL
CC(=O)NC[C@H]1CN(c2ccc(-c3ccc(CN(C)C(=O)c4cccn4C)cc3)c(F)c2)C(=O)O1	4 µg/mL
CC(=O)NC[C@H]1CN(c2ccc(-c3ccc(CNCc4ccco4)c(F)c3F)c(F)c2)C(=O)O1	2 µg/mL
CC(=O)NC[C@H]1CN(c2ccc(-c3ccc(Cn4nnc5c(=O)[nH]cnc54)cc3)c(F)c2)C(=O)O1	1 µg/mL

====

# MIC listing for each entry below
- System: B. thetaiotaomicron
- run-description: microbe, parasite or virus in culture
- Type: cell-based
- condition-description: Bacteroides thetaiotaomicron, ATCC29741, read-out: MIC, broth microdilution
measurement-label: MIC (µg/mL)

CN(C)[C@@H]1C(O)=C(C(N)=O)C(=O)[C@@]2(O)C(O)=C3C(=O)c4c(O)cccc4[C@@](C)(O)[C@H]3C[C@@H]12 [TET, tetracycline]	8
CC[C@H]1OC(=O)[C@H](C)[C@@H](O[C@H]2C[C@@](C)(OC)[C@@H](O)[C@H](C)O2)[C@H](C)[C@@H](O[C@@H]2O[C@H](C)C[C@H](N(C)C)[C@H]2O)[C@](C)(O)C[C@@H](C)C(=O)[C@H](C)[C@@H](O)[C@]1(C)O [ERY, erythromycin]	16
Cc1ncc([N+](=O)[O-])n1CCO [MET, metronidazole]	4
C[C@H]1c2cccc(O)c2C(=O)C2=C(O)[C@]3(O)C(=O)C(C(N)=O)=C(O)[C@@H](N(C)C)[C@@H]3[C@@H](O)[C@@H]21 [DOX, doxycycline]	2

====

- System: S. aureus
- run-description: Minimum inhibitory concentrations (MICs) for S. aureus of exemplary compounds (Table 2)
- Format: cell-based
- condition-description: Staphylococcus aureus, minimum inhibitory concentrations for S. aureus; read-out: MICs
Listed below: MIC values for each entry.
measurement-label: MIC (µg/mL)

CC(=O)NC[C@H]1CN(c2ccc(-c3ccc(CNCc4c[nH]c(-c5ccccc5)n4)cc3)c(F)c2)C(=O)O1	16
CC(=O)NC[C@H]1CN(c2ccc(-c3ccc(S(=O)(=O)NCc4ccncc4)cc3)c(F)c2)C(=O)O1	2
CC(=O)NC[C@H]1CN(c2ccc(-c3ccc(CN(Cc4[nH]nnc4C)Cc4[nH]nnc4C)cc3)c(F)c2)C(=O)O1	4
CC(=O)NC[C@H]1CN(c2ccc(-c3ccc(CNCC4CCNCC4)cc3)c(F)c2)C(=O)O1	64

====

- Test system: S. aureus
- run-description: Minimum inhibitory concentrations (MICs) for S. aureus of exemplary compounds (Table 2)
- Format: cell-based
- condition-description: Staphylococcus aureus, minimum inhibitory concentrations for S. aureus; read-out: MICs
Readings of MIC for the listed compounds
measurement-label: MIC (µg/mL)

CC(=O)NC[C@H]1CN(c2ccc(-c3ccc(COCc4cc[n+]([O-])cc4)cc3)c(F)c2)C(=O)O1 [Compound 4198]	2
CC(=O)NC[C@H]1CN(c2ccc(-c3ccc(CSCC4CO4)cc3)c(F)c2)C(=O)O1 (stereo partly shown) [Compound 4226]	1
CC(=O)NC[C@H]1CN(c2ccc(-c3ccc(Cn4cnc5c(NCCCF)ncnc54)cc3)c(F)c2)C(=O)O1 [Compound 1098]	2
CC(=O)NC[C@H]1CN(c2ccc(-c3ccc(Cn4cnc5c(NCCO)ncnc54)cc3)c(F)c2)C(=O)O1 [Compound 1099]	2
CC(=O)NC[C@H]1CN(c2ccc(-c3ccc(CSc4nncs4)cc3)c(F)c2)C(=O)O1 [Compound 2029]	0.25
CC(=O)NC[C@H]1CN(c2ccc(-c3ccc(CNCc4cc5ccccc5o4)cc3)c(F)c2)C(=O)O1 [Compound 4020]	2
CCSc1nnnn1Cc1ccc(-c2ccc(N3C[C@H](CNC(C)=O)OC3=O)cc2F)cc1 [Compound 1081]	2

// data source = patent US10471046B2
